assay.name: Cmax in C57BL/6 mouse lung at 30 mg/kg, po by LC-MS/MS analysis
Type: ADME, organism-based
Set-up: dose 30 mg/kg, route oral
reported.metric: Cmax (µM)

>>> endpoint_result("Cl.NCc1cc(Oc2cccc(C(=O)NC[C@@H](O)CO)c2)nc(C(F)(F)F)c1")
1.92
>>> endpoint_result("Cl.NCc1cc(Oc2cccc(C(=O)Nc3ccccc3)c2)nc(C(F)(F)F)c1")
10.3
>>> endpoint_result("Cl.NCc1cc(Oc2cccc(C(=O)N3C[C@@H](O)[C@H](F)C3)c2)nc(C(F)(F)F)c1 (racemic)")
21

[a] Cl.NCc1cc(Oc2cccc(C(=O)NCCS(N)(=O)=O)c2)nc(C(F)(F)F)c1
[b] Cl.NCc1cc(Oc2cccc(C(=O)NCCn3cnnn3)c2)nc(C(F)(F)F)c1
Qu. Higher Cmax between a and b ? To answer, give the label that identifies your chosen option.
Ans. b
(b: 3.46 µM, a: 0.54 µM)
